Tested on: PC-3
method.description: NCI tumour cell line growth inhibition, 48 h
The source made the active and inactive calls. No stated cut-off is given here; in the data, active = GI50 up to about 1.1 µM and inactive = higher.
Exercise: for every item that follows, state its recorded GI50.

| molecule | GI50 |
| --- | --- |
| COc1ccc2c(c1)C/C(=C\c1ccc(O)c(OC)c1)C2=O | > 100 µM (inactive) |
| COc1ccc(NC(=S)c2ccoc2C)cc1CC(=O)OC(C)C | 21.9 µM (inactive) |
| COc1c(O)c(OC)c2oc(-c3ccc(O)cc3)c(OC)c(=O)c2c1O | 48.6 µM (inactive) |
| Cc1ccc(S(=O)(=O)C2=C(C(C)C)N=NC2(C)C)cc1 | > 100 µM (inactive) |
| Cc1ccccc1-n1c(=O)nc2n(-c3ccc(C(C)(C)C)cc3)c3ccccc3cc-2c1=O | 19.8 µM (inactive) |

Hi team, please reply with GI50 for each item in this list.
1. ClCCN1CCO/C1=N/c1ccc2c(c1)CCCC2
2. COC(=O)C1c2cc3c(cc2C(OC2OC(C)C(OC)C(C)(OC)C2OC)CC1(C)O)C(=O)c1c(O)cc2c(c1C3=O)OC1OC2(C)C(O)C([N+](C)(C)[O-])C1O (centres undefined)
3. COC(=O)c1csc(-c2nc(CCNC(=O)OC(C)(C)C)sc2Br)n1
4. Cc1cccc2c1CC1(C2)Cc2c(C)cccc2C1=O (centres undefined)
5. CN1C(CC(O)c2ccccc2)CCCC1CC(O)(c1ccccc1)c1ccccc1 (centres undefined)
6. O=C(CN1CCOCC1)CC(O)(C(F)(F)F)C(F)(F)F
7. Nn1c(-c2ccccc2)nn(C(=O)c2ccccc2)c1=O

## Result
1. 4.44 µM (inactive)
2. 0.355 µM (active)
3. 55.7 µM (inactive)
4. 31.7 µM (inactive)
5. 18.2 µM (inactive)
6. 32.1 µM (inactive)
7. > 100 µM (inactive)

Hi team, please reply with GI50 for each item in this list.
1. O=c1ccn(C2OC(CN(O)CCC3C(O)C(CO)OC3n3ccc(=O)[nH]c3=O)C(O)C2O)c(=O)[nH]1 (centres undefined)
2. CC(C)(C)n1c(=O)n2c(-c3ccccc3)c(-c3ccccc3)n2c1=O

## Result
> 100 µM (inactive)
44.7 µM (inactive)

Hi team, please reply with GI50 for each item in this list.
1. S=C1SCN(C2CCCCCCCCCCC2)CN1C1CCCCCCCCCCC1
2. CCOP(=O)(OCC)Oc1c(OC)c2[nH]c(C(=O)OC)cc2c2c(C(=O)O)c[nH]c12
3. COC(=O)c1c(C(=O)OC)c2ccccn2c1-c1cc(C)cc2c1C(=O)C=CC2=O
4. CCCC(=O)OC1CC(n2cc(F)c(=O)[nH]c2=O)OC1CO (centres undefined)
5. COc1cc2c(cc1O)C(Cc1ccc(OCc3ccccc3)c(OCc3ccccc3)c1)N(C(=O)NCCc1ccccc1)CC2 (centres undefined)
6. CC(=O)C1C(=O)C(C(C)=O)C2C3C=CC(C3)C12 (centres undefined)
7. O=C(c1ccccc1)c1c(C(F)(F)F)[n+]([O-])c2cc(F)c(F)cc2[n+]1[O-]

## Result
1. > 100 µM (inactive)
2. > 100 µM (inactive)
3. 14 µM (inactive)
4. 1.48 µM (inactive)
5. 54.7 µM (inactive)
6. > 100 µM (inactive)
7. 0.716 µM (active)

Hi team, please reply with GI50 for each item in this list.
1. CN(C)c1ccc(/C=C/c2nc3ccccc3s2)cc1
2. COc1ccc(/C=C2\CC3C4CC=C5C[C@@H](N6CCCC6)CC[C@]5(C)C4CC[C@]3(C)[C@H]2O)cc1OC (some centres undefined)
3. CN(C)CCN(C)P12(Oc3ccccc3O1)Oc1c(Cl)c(Cl)c(Cl)c(Cl)c1O2

## Result
["> 100 µM (inactive)", "6.3 µM (inactive)", "33.7 µM (inactive)"]
